# assayed.target: PPP4R3A EVH1 domain (Homo sapiens, UniProt Q6IN85)
# Sequence (Q6IN85 2-117): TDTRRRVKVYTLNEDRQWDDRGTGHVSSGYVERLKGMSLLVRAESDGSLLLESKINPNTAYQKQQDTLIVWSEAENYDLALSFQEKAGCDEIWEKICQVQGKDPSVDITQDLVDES
# assay.procedure: ITC of peptides with the EVH1 domain from PPP4R3A
# Assay type: binding
Ends that are not written are not given here.
In plain terms, low Kd, meaning strictly below 4 µM, gives Met, and everything else gives Not met.

>>> df
                     input_sequence  class_assignment
0     DPDTELMPAPPPKRPHPL [MCE1-P3A]           Not met
1     DPDTELAPPPPPKRPHPL [MCE1-M1A]           Not met
2     DPDTELMPPPPAKRPHPL [MCE1-P6A]               Met
3  DPDTEAMPPPPPKRPHPL [MCE1-L(-1)A]               Met
4     DPDTELMPPPAPKRPHPL [MCE1-P5A]               Met
5     DPDTELMPPAPPKRPHPL [MCE1-P4A]           Not met
